Data credit: PubChem BioAssay (NCI)

Test system: OVCAR-3 ovarian
PROTOCOL_DESCRIPTION: NCI tumour cell line growth inhibition, 48 h; in the data active = GI50 below about 0.43 µM; inactive = the rest
Thanks in advance; please answer with one of these: true = active, false = inactive

Consider the worked cases shown below.
CCCCCCCCCNCCCCCCCCC : false
CC(=O)[CH-]C(=O)c1ccccc1.CC(=O)[CH-]C(=O)c1ccccc1.CC(=O)[CH-]C(=O)c1ccccc1.[Tl+3] : false
C=C1C(=O)O[C@@H]2C1C[C@@H](O)/C(C)=C/C/C=C(\C)CCC[C@H](C)[C@H]2OC(C)=O (some centres undefined) : false
Cn1ccc2c(NCCN)c3c(c(NCCN)c21)C(=O)c1ccccc1C3=O : false
N#CC1=C(N)NC(=S)NC12Nc1ccccc1O2 (centres undefined) : false

Shifting focus to the compound that follows.
Any idea what this test logged for CC1(C)OC[C@@H]([C@@]2(CO[Si](C)(C)C(C)(C)C)CC=CC(=O)O2)O1 ? false

* * *

Test system: IGROV1 ovarian
PROTOCOL_DESCRIPTION: NCI tumour cell line growth inhibition, 48 h
Form field: GI50 (one value per entry).

N#CC1=C(N)NC(=S)NC12Nc1ccccc1O2 (configuration not stated) : 3.17 µM
O=C1CCCCCCCC/C=C/CCC(c2ccco2)O1 (configuration not stated) : 51.2 µM
COc1ccc2nc(-c3ccccc3)cc(Nc3ccc(C(C)=O)cc3)c2c1 : 15.8 µM
COc1cc(Cl)cc(-c2nn(C(=O)NCCN3CCN(C)CC3)cc2-c2ccncc2)c1 : 17.8 µM
COc1cc(C(=O)O[C@H](C(=O)NCCNC(=O)[C@@H](OC(=O)c2cc(OC)cc3c(C)cccc23)[C@]2(C)CO2)[C@]2(C)CO2)c2cccc(C)c2c1 : < 0.0475 µM
CCN(CC)CCOc1ccc(Nc2ncc3cc(-c4ccc(O)cc4)c(=O)n(C)c3n2)cc1 : 0.0803 µM
C=C1CC[C@@]2(C#N)[C@H]3[C@H](CC[C@@H]2C)[C@@H](C)C[C@@H](CC(C)(C)C#N)[C@H]13 : 4.77 µM
O=C(Nc1ccc(-n2cc(-c3ccncc3)c(-c3ccc(O)c(Cl)c3)n2)cc1)c1cc(Cl)cc(Cl)c1 : > 32.5 µM
C[C@@H]1O[C@@H](O[C@@H]2[C@@H](O)[C@H](OCCc3ccc(O)c(O)c3)O[C@H](COC(=O)/C=C/c3ccc(O)c(O)c3)[C@H]2O)[C@H](O)[C@H](O)[C@H]1O : > 100 µM
C/C=C(\C)C(=O)N[C@H]1[C@@H](OC(C)=O)C[C@]2(C)C3CC[C@@]4(C)C(CC[C@@H]4C(C)N(C)C)C3CCC2[C@H]1O (some centres not stated) : 5.88 µM

Supply measured GI50 of Cn1ccc2c(NCCN)c3c(c(NCCN)c21)C(=O)c1ccccc1C3=O in your reply. 0.824 µM

Supply measured GI50 of CC([C@H]1CCC2C3CCC4C[C@@H](NC=O)CC[C@]4(C)C3CC[C@@]21C)N(C)C (some centres not stated) in your reply. 4.81 µM

Supply measured GI50 of CC(=O)C1CC2(c3ccc(C)cc3)C(c3ccc(C)cc3)=C(c3ccc(C)cc3)C1(c1ccc(C)cc1)S2=O (configuration not stated) in your reply. 70.2 µM

Supply measured GI50 of CCOC(=O)CCCn1c(SC)nc2cc(-c3ccco3)[nH]c2c1=O in your reply. 19.6 µM

Supply measured GI50 of N=C1c2nc3n(c2C(=O)c2nc4n(c21)CCCC4)CCCC3 in your reply. 41.6 µM

Supply measured GI50 of COC(=O)NC/C=C\c1nc(CC/C=C\C(=O)OC2CC3CC(=O)O[C@H](/C=C/CC(C)C)C[C@H]4CCC(C)C(C[C@H](OC)CC(C2)O3)O4)co1 (some centres not stated) in your reply. 2.51 µM

Supply measured GI50 of c1ccc(C(=NNc2nc3ccccc3o2)c2ccccn2)nc1 in your reply. 0.0437 µM
